target-entity: Glucocorticoid Receptor (Homo sapiens)
Construct: These cells express large amount of the GR and are very responsive to GC treatment; endogenous in cells; host or cells: A549 cells transiently transfected with the MMTV-LUC reporter
Sequence (P04150 1-777): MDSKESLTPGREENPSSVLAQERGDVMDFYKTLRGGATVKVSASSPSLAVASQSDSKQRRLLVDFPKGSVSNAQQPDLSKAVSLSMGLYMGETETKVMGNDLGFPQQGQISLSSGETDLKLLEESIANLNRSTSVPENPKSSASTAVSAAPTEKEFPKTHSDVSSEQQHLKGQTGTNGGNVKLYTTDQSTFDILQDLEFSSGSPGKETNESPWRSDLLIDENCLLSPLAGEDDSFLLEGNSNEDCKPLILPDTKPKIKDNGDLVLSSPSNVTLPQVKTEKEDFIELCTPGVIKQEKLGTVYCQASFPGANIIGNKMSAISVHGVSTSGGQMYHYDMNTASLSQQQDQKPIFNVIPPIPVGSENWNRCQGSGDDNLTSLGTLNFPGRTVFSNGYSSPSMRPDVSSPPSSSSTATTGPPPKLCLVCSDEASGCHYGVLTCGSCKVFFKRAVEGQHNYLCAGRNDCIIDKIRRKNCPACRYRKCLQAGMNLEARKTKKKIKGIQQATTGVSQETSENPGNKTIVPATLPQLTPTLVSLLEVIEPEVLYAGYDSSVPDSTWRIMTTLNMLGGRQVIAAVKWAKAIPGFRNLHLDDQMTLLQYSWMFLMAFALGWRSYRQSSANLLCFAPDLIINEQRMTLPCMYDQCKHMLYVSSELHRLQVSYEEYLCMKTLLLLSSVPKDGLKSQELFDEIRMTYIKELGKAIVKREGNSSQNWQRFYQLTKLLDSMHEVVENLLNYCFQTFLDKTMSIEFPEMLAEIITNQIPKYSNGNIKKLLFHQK
assay-details: Trans-Activation Modulation of Glucocorticoid Receptor (GRAMMER), MMTV-LUC reporter gene in A549 cells
Type: cell-based
condition-description: inflection point; A549 cells; Table 1; read-out: Transactivation A549 Cells GRAMMER IP
experimental-endpoint: pEC50
In textbook form, pEC50 equals minus log to base ten of the concentration in mol/L.

>>> number("CC1CC(C)CN(C(=O)[C@H]2CCC3=Cc4c(cnn4-c4ccc(F)cc4)C[C@@]32C)C1 (stereo partly shown) [Compound 53]")
5.64
>>> number("Cc1ccc(CCN(CC(O)C(F)(F)F)C(=O)[C@H]2CCC3=Cc4c(cnn4-c4ccc(F)cc4)C[C@@]32C)cc1 (stereo partly shown) [Compound 82]")
6.56
>>> number("CN(CC(O)C(F)(F)F)C(=O)[C@H]1CCC2=Cc3c(cnn3-c3ccccc3)C[C@@]21C (stereo partly shown) [Compound 75]")
6.79
>>> number("C[C@]12Cc3cnn(-c4ccc(F)cc4)c3C=C1CC[C@@H]2C(=O)N(CCC#N)CCC#N [Compound 13]")
6.29
>>> number("CN(CC(O)C(F)(F)F)C(=O)[C@H]1CCC2=Cc3c(cnn3-c3ccc(F)cc3)C[C@@]21C (stereo partly shown) [Compound 70]")
6.64
>>> number("C[C@]12Cc3cnn(-c4ccccc4)c3C=C1CC[C@@H]2C(=O)N(CC1CC1)CC(O)C(F)(F)F (stereo partly shown) [Compound 81]")
6.53
>>> number("CC(C)CN(C[C@@H](C)O)C(=O)[C@H]1CCC2=Cc3c(cnn3-c3ccc(F)cc3)C[C@@]21C [Compound 67]")
6.14
>>> number("C[C@]12Cc3cnn(-c4ccc(F)cc4)c3C=C1CC[C@@H]2C(=O)N1CCC(C(F)(F)F)CC1 [Compound 42]")
6.38

Give the value of pEC50 reported for the following: C[C@]12Cc3cnn(-c4ccc(F)cc4)c3C=C1CC[C@@H]2C(=O)N(CCO)Cc1ccccc1CS(=O)(=O)c1ccccc1 [Compound 30]
5.96

Give the value of pEC50 reported for the following: COc1cccc(CN(C)C(=O)[C@H]2CCC3=Cc4c(cnn4-c4ccc(F)cc4)C[C@@]32C)c1 [Compound 47]
5.69
